Tested on: BaF3 cells expressing JAK2-V617F
Details: read-out: IC50, cell proliferation
Metric Name: IC50

Input line: Which IC50 value belongs to `Cc1cnc(Nc2ccc(OCCN3CCCC3)cc2)nc1Nc1cccc(S(=O)(=O)NC(C)(C)C)c1` ?
Output line: ~0.9 µM

###

Tested on: BaF3 cells expressing JAK2-V617F/Y931C/W1038C
Experiment: BaF3 cell proliferation dose-response
Assay type: cell-based
Conditions: Mus musculus, BaF3, read-out: IC50, cell proliferation
Metric Name: IC50 (nM)
Give your result in nM as a bare value.

Input line: API: value(readout=IC50, system=BaF3 cells expressing JAK2-V617F/Y931C/W1038C) for record Cc1cnc(Nc2ccc(OCCN3CCCC3)cc2)nc1Nc1cccc(S(=O)(=O)NC(C)(C)C)c1 [fedratinib]
Output line: 1580
